Values compiled from the supplement of paper PMC12645437.

# Measurement Target: T1, CRBN, Q96SW2;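 further: pooled lentiviral library of zinc finger degron-EGFP fusions in mCherry-positive Jurkat cells, FACS-sorted after compound exposure, with degron abundance counted by next-generation sequencing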
# T1 chain: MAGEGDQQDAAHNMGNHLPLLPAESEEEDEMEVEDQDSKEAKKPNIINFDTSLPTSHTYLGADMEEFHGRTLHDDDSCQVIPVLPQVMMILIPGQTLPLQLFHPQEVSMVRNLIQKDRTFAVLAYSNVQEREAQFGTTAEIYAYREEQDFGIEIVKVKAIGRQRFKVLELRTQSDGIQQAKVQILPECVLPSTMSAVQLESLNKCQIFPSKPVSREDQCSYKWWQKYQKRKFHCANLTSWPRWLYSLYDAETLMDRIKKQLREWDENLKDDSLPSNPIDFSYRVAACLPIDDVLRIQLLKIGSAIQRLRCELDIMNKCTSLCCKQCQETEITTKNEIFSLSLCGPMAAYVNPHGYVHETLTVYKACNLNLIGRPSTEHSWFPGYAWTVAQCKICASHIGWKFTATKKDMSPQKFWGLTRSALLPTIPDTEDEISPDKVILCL
# Experiment Summary: log2 fold change of degron read counts, EGFP-low vs EGFP+ sorted cells (limma voom), compound-induced degradation; higher = more compound-induced degradation of the degron-EGFP fusion; degrons are variants of IKZF1/3 zinc finger 2; compound dose not given here
# Test Conditions: Jurkat; 18 h; compound: compound 19 (5-tert-butyl-thalidomide)
The full ranking holds about 8,300 sequences; the median of “log2 fold change of degron read counts, EGFP-low vs EGFP+ sorted cells (limma voom), compound-induced degradation” is about -1.1, and the highest 2% start at about 3.2. For the sample, the highest values were picked, then their nearest neighbours and some sequences at random.
Measured Parameter: log2 fold change of degron read counts
# output: bare number, no unit

Report log2 fold change of degron read counts for FVCEICGAGFTQKGNLLRHIKL [46F_47V_49E_50I_52G_53A_54G_55F_67L_, Q9UKT9] please.
1.53

Here is the next sequence: FECPICGAKFTQKGNLLRHIKL [46F_47E_49P_50I_52G_53A_54K_55F_67L_, Q9UKT9]
0.543

Here is the next sequence: FMCEICGAGFTQKGNLLRHIKL [46F_47M_49E_50I_52G_53A_54G_55F_67L_, Q9UKT9]
2.81

Here is the next sequence: FECNQCGRAFTQKGNLLRHIKL [46F_47E_49N_50Q_52G_53R_54A_55F_67L_, Q9UKT9]
-3.75

Here is the next sequence: FFCPICGRMFTQKGNLLRHIKL [46F_47F_49P_50I_52G_53R_54M_55F_67L_, Q9UKT9]
0.209

Here is the next sequence: FHCNVCGAQFTQKGNLLRHIKL [46F_47H_49N_50V_52G_53A_54Q_55F_67L_, Q9UKT9]
-0.612

Here is the next sequence: FKCNVCGAEFTQKGNLLRHIKL [46F_47K_49N_50V_52G_53A_54E_55F_67L_, Q9UKT9]
-3.18
